Tested on: nude mice, HT29 intrarenal xenograft, tumor weight T/C
Test: NCI In Vivo Anticancer Drug Screen. Data for tumor model HT29;CX-1 Human Adenocarcinoma (MER+) (intrarenal inoculation) in NU/NU Swiss (nude) mice
Conditions: endpoint: mean tumor weight change; dose: 0.5 mg/kg/injection; schedule: Q04DX004 (sc); vehicle: saline; higher = larger tumour
Records with an inconclusive call do not appear.
readout_name: T/C

Use the examples below as a reference point.
[[record]]
molecule = "CO[C@H](C(=O)[C@@H](O)[C@@H](C)O)[C@@H]1Cc2cc3cc(OC4CC(OC5CC(O)C(O)C(C)O5)C(O)C(C)O4)c(C)c(O)c3c(O)c2C(=O)[C@H]1OC1CC(OC2CC(OC3CC(C)(O)C(O)C(C)O3)C(O)C(C)O2)C(O)C(C)O1 (some centres undefined)"
readout_name = "T/C"
endpoint_value = "53 % of control"

[[record]]
molecule = "C/C=C1\\C[C@@H]2C(OC)Nc3cc(O)c(OC)cc3C(=O)N2C1 (some centres undefined)"
readout_name = "T/C"
endpoint_value = "93 % of control"

[[record]]
molecule = "C/C=C(\\C)c1cc(=O)c2c(C)cc3c(c2o1)C(=O)c1c(O)c(C2CC(C)(N(C)C)C(O)C(C)O2)cc(C2CC(N(C)C)C(O)C(C)O2)c1C3=O (centres undefined)"
readout_name = "T/C"
endpoint_value = "78 % of control"


Turning now to a further record.
Prompt line: For nude mice, HT29 intrarenal xenograft, tumor weight T/C, provide T/C of O=C1C(NCCO)=C(N2CC2)C(=O)C(NCCO)=C1N1CC1 please.
Response line: 76 % of control

----------
Tested on: nude mice, HT29 intrarenal xenograft, tumor weight T/C
Assay: NCI In Vivo Anticancer Drug Screen. Data for tumor model HT29;CX-1 Human Adenocarcinoma (MER+) (intrarenal inoculation) in NU/NU Swiss (nude) mice
Conditions: endpoint: mean tumor weight change; dose: 400.0 mg/kg/injection; schedule: Q04DX004 (sc); vehicle: Klucel (hydroxypropylcellulose) (HPC); higher = larger tumour
Results filed as inconclusive are left out. Positions of bridges follow the written chain, without caps; N, C: chain ends. Non-standard residues stand in square brackets, D forms with d. Residues, ends and D or L forms follow the SMILES beside them. Chains are numbered I, II in the order given. *: point of attachment. Quinoxaline2carbonyl = O=C(c1cnc2ccccc2n1)*; NMeV = CN[CH](C(=O)O)C(C)C; NMeC = CN[CH](CS)C(=O)O
readout_name: T/C

Use the examples below as a reference point.
[[record]]
molecule = "CCc1c(CC(=O)O)c2cc(C)ccc2n1Cc1ccc(Cl)cc1"
endpoint_value = "86 % of control"

[[record]]
molecule = "O=S(=O)(SC(S(=O)(=O)c1ccccc1)S(=O)(=O)c1ccccc1)c1ccccc1"
endpoint_value = "246 % of control"

[[record]]
molecule = "COc1ccc2c(c1)CCC(c1ccccc1)=C2c1ccc(OCCN2CCCC2)cc1"
endpoint_value = "52 % of control"

[[record]]
molecule = "CSc1nc(=O)[nH]nc1SCc1ccccc1"
endpoint_value = "56 % of control"

[[record]]
molecule = "CNC(=O)OCc1c(COC(=O)NC)c(C)n(-c2ccc(OC)cc2)c1C"
endpoint_value = "36 % of control"

[[record]]
molecule = "O=C1NC(=O)NC(C(=O)O)N1"
endpoint_value = "91 % of control"


Prompt line: I am curious: what T/C value has been reported for CC1NC(=O)C(NC(=O)c2cnc3ccccc3n2)COC(=O)C(C(C)C)N(C)C(=O)C2CSSCC(C(=O)N(C)C(C(C)C)C(=O)OCC(NC(=O)c3cnc4ccccc4n3)C(=O)NC(C)C(=O)N2C)N(C)C1=O (configuration not stated) (I: Quinoxaline2carbonyl-SA[NMeC][NMeV] / II: Quinoxaline2carbonyl-SA[NMeC][NMeV]; ester I:1-II:C, I:C-II:1; disulfide I:3-II:3; configuration not given here) ?
Response line: 74 % of control

----------
Below: a set of entries, each annotated with reported T/C.
System: nude mice, HT29 intrarenal xenograft, tumor weight T/C
Assay: NCI In Vivo Anticancer Drug Screen. Data for tumor model HT29;CX-1 Human Adenocarcinoma (MER+) (intrarenal inoculation) in NU/NU Swiss (nude) mice
Details: endpoint: mean tumor weight change; dose: 9.38 mg/kg/injection; schedule: Q04DX004 (sc); vehicle: saline with Tween-80; higher = larger tumour
Records with an inconclusive call do not appear.

Use the examples below as a reference point.
[[record]]
chemical_structure = "C1CN2CCC1CC2"
endpoint_value = "65 % of control"

[[record]]
chemical_structure = "Nc1nc(N)c2c(Cl)c(CNc3ccc(Cl)c(Cl)c3)ccc2n1"
endpoint_value = "85 % of control"

[[record]]
chemical_structure = "Cc1cc(NCCCN(C)C)c2ccc3c(ccc4c(NCCCN(C)C)cc(C)nc43)c2n1"
endpoint_value = "53 % of control"


Turning now to a further record.
Prompt line: I am curious: what T/C value has been reported for C=C1C(=O)O[C@@H]2[C@H](O)[C@@H](C)[C@@H]3C=CC(=O)[C@@]3(C)[C@H](OC(=O)C=C(C)C)[C@H]12 ?
Response line: 93 % of control

----------
Tested on: nude mice, HT29 intrarenal xenograft, tumor weight T/C
Test: NCI In Vivo Anticancer Drug Screen. Data for tumor model HT29;CX-1 Human Adenocarcinoma (MER+) (intrarenal inoculation) in NU/NU Swiss (nude) mice
Details: endpoint: mean tumor weight change; dose: 450.0 mg/kg/injection; schedule: Q04DX004 (sc); vehicle: saline with Tween-80; higher = larger tumour
Results filed as inconclusive are left out.
readout_name: T/C

Use the examples below as a reference point.
[[record]]
compound = "CC(=O)NC(Cc1ccc(F)cc1)C(=O)O (stereo unspecified)"
target_under_test = "nude mice, HT29 intrarenal xenograft, tumor weight T/C"
endpoint_value = "114 % of control"

[[record]]
compound = "CCCCCCCCCCCCCCCCCCCCCC(=O)Nc1ccn(C2OC(CO)C(O)C2O)c(=O)n1 (stereo unspecified)"
target_under_test = "nude mice, HT29 intrarenal xenograft, tumor weight T/C"
endpoint_value = "88 % of control"

[[record]]
compound = "COC(=O)CC(N)C(=O)O (stereo unspecified)"
target_under_test = "nude mice, HT29 intrarenal xenograft, tumor weight T/C"
endpoint_value = "81 % of control"

[[record]]
compound = "O=S(=O)(c1ccccc1)N1CN2CCN(C2)C1"
target_under_test = "nude mice, HT29 intrarenal xenograft, tumor weight T/C"
endpoint_value = "75 % of control"

[[record]]
compound = "CC(=O)Nc1ccc(S(=O)(=O)CO)cc1"
target_under_test = "nude mice, HT29 intrarenal xenograft, tumor weight T/C"
endpoint_value = "57 % of control"


Turning now to a further record.
Prompt line: I am curious: what T/C value has been reported for COC(=O)C(Cl)(Cl)N=Nc1c(Cl)cc(Cl)c(C)c1Cl ?
Response line: 105 % of control

----------
Below: a set of entries, each annotated with reported T/C.
System: nude mice, HT29 intrarenal xenograft, tumor weight T/C
Assay: NCI In Vivo Anticancer Drug Screen. Data for tumor model HT29;CX-1 Human Adenocarcinoma (MER+) (intrarenal inoculation) in NU/NU Swiss (nude) mice
Details: endpoint: mean tumor weight change; dose: 150.0 mg/kg/injection; schedule: Q04DX004 (sc); vehicle: saline with Tween-80; higher = larger tumour
Records with an inconclusive call do not appear.

Use the examples below as a reference point.
[[record]]
compound = "CCCCCC#CC1OC12CCCCC2 (stereo not drawn)"
endpoint_value = "74 % of control"

[[record]]
compound = "CC(=O)Nc1cscc1NC(C)=O"
endpoint_value = "81 % of control"

[[record]]
compound = "CC/C(=C(/CC)c1ccc(O)cc1)c1ccc(O)cc1"
endpoint_value = "70 % of control"


Prompt line: I am curious: what T/C value has been reported for COc1cc(C(=O)N/N=C/c2cccc([N+](=O)[O-])c2)cc(OC)c1OC ?
Response line: 91 % of control

Prompt line: Proceed to COc1ccc([I+]c2cccc(Cl)c2)cc1Cl
Response line: 58 % of control

Prompt line: Proceed to COC(=Nc1ccccc1)SSC(C)C
Response line: 104 % of control

----------
Tested on: nude mice, HT29 intrarenal xenograft, tumor weight T/C
Experiment: NCI In Vivo Anticancer Drug Screen. Data for tumor model HT29;CX-1 Human Adenocarcinoma (MER+) (intrarenal inoculation) in NU/NU Swiss (nude) mice
Settings: endpoint: mean tumor weight change; dose: 300.0 mg/kg/injection; schedule: Q04DX004 (sc); vehicle: saline with Tween-80; higher = larger tumour
Records with an inconclusive call do not appear.
readout_name: T/C

Use the examples below as a reference point.
[[record]]
compound = "CC/C(=C(/CC)c1ccc(O)cc1)c1ccc(O)cc1"
target_under_test = "nude mice, HT29 intrarenal xenograft, tumor weight T/C"
readout_name = "T/C"
endpoint_value = "69 % of control"

[[record]]
compound = "CN=C(N)N/N=C(\\C)c1ccc2c(c1)Cc1ccccc1-2"
target_under_test = "nude mice, HT29 intrarenal xenograft, tumor weight T/C"
readout_name = "T/C"
endpoint_value = "91 % of control"

[[record]]
compound = "CCC1=C2C(=O)c3ccccc3C2=C(C)S(=O)(=O)O1"
target_under_test = "nude mice, HT29 intrarenal xenograft, tumor weight T/C"
readout_name = "T/C"
endpoint_value = "50 % of control"

[[record]]
compound = "CC(=O)CC(C)=O.CC(=O)CC(C)=O.O=N[O-].O=N[O-].[Co]"
target_under_test = "nude mice, HT29 intrarenal xenograft, tumor weight T/C"
readout_name = "T/C"
endpoint_value = "48 % of control"

[[record]]
compound = "Cn1c2nc(=O)n(-c3ccccc3)c(=O)c-2nc2c1CCCC2"
target_under_test = "nude mice, HT29 intrarenal xenograft, tumor weight T/C"
readout_name = "T/C"
endpoint_value = "32 % of control"


Prompt line: I am curious: what T/C value has been reported for Brc1ccc(C[N+]23CN4CN(CN(C4)C2)C3)cc1 ?
Response line: 101 % of control
